tested on: PRMT5-dependent Symmetric Di-methyl Arginine signal in HCT116 homozygous MTAP Knockout cells; assay: SYM11 In-Cell Western in HCT116 homozygous MTAP knockout cells; assay type: cell-based; details: 4 days of treatment, SYM11/DRAQ5 ratio as percent of DMSO control, read-out: In-cell-Western (SYM11) IC50 (nM) HCT116 MTAP_KO
property_measured: IC50 (nM)

| molecule | data_value |
| --- | --- |
| Cc1cc(-c2cnn(C)c2-c2c(C#N)cc3ccccc3c2Cl)cc2c(CN)n[nH]c(=O)c12 (single isomer, unassigned) [Example 16-52] | 13 |

I: Cn1ncc(-c2ccc3c(=O)[nH]nc(CN)c3c2)c1-c1c(C#N)cc2ccccc2c1Cl (single isomer, unassigned) [Example 16-6]
II: Cn1ncc(-c2ccc3c(=O)[nH]nc(CN)c3c2)c1-c1c(F)ccc(OC2CC2)c1C#N (single isomer, unassigned) [Example 16-21]
Given the two records I and II , choose the one whose IC50 value is lower. To answer, give the label that identifies your chosen option.
I
(I: 20 nM, II: 65 nM)
